Taken from PubChem BioAssay (NCI).

Tested on: SK-OV-3 ovarian
procedureSummary: NCI tumour cell line growth inhibition, 48 h
observable: TGI

Use these answered entries as a reference point.
- compound: "O=C(O)c1nc2ccc(Cl)cc2[nH]c1=O"
  TGI: "> 100 µM"
- compound: "Cc1cc(C)c2c(n1)S(=O)(=O)N(CCCN1CCN(c3cccc(Cl)c3)CC1)/C(=C(\\O)c1ccccc1)C2=O"
  TGI: "> 100 µM"
- compound: "N#Cc1ccc(/C=C(/C(=O)c2ccccc2)c2ccccc2)cc1"
  TGI: "> 54.6 µM"
- compound: "O=C(NCCc1ccccc1)Nc1ccc2cc3ccc(NC(=O)NCCc4ccccc4)cc3nc2c1"
  TGI: "3 µM"
- compound: "CC1=C(/C=C/C(=O)CC(=O)/C=C/C2=C(C)CCCC2(C)C)C(C)(C)CCC1"
  TGI: "> 100 µM"
- compound: "COc1ccc2c(c1)CC1COc3cc(OC)ccc3C1O2 (stereo not drawn)"
  TGI: "> 100 µM"

Which TGI reading was recorded for the compound N#Cc1cc2c(cc1C#N)/C(=N\c1cccc(N)n1)N=C2Nc1cccc(N)n1 ?
42.4 µM

Same for C/C(=N\NC(N)=S)c1ccc(C)c(C)c1
> 100 µM

Same for NC(=S)N=Nc1c(O)[nH]c2c(Cl)cc(Cl)cc12
> 100 µM

Same for O=NN1C(c2ccccc2)C2CCCC(C2=O)C1c1ccccc1 (stereo not drawn)
73.6 µM

Same for O=c1[nH]nc(-c2ccccc2)n1/N=C/c1ccco1
> 100 µM

Same for OB(O)c1ccccc1C#Cc1ccccc1B(O)O
> 100 µM

Same for COc1ccc(C(C)c2cc(OC)c(OC)c(OC)c2)cc1 (stereo not drawn)
> 50 µM

Same for C/C(=N\NC(=O)C[N+](C)(C)C)c1sc(-c2cccnc2)nc1C
> 100 µM

Same for CO[C@@H]1CCN(c2nccc(Nc3cc4c(C(C)C)ccc(N5CC(CS(C)(=O)=O)[C@H]5C)c4cn3)n2)C[C@@H]1F (stereo partly drawn)
> 100 µM

Same for [N-]=[N+]=NC1(c2ccccc2)C(=O)C(Cl)=C(c2ccccc2)N(c2ccccc2)C1=O (stereo not drawn)
78.6 µM

Same for Cc1cccc(C)c1NC(=O)CCC/C(CC(=O)c1ccc(F)cc1)=N\NC(=O)C(=O)NN
> 100 µM

Same for CN(CCNC(=O)c1c[nH]c2c1ccc1ccccc12)CCNC(=O)c1c[nH]c2c1ccc1ccccc12
18.4 µM

Same for N#Cc1c(C#N)c(-c2ccccc2)n(Cc2ccccc2)c1N
> 100 µM

Same for C1OC1CN1CCN(CC2CO2)CC1 (stereo not drawn)
> 100 µM

Same for O=C(CSCC(=O)N/N=C/c1ccccc1O)N/N=C\c1ccccc1O
> 100 µM

Same for Cc1c(O)c(OC2OC(CO)C(O)C(O)C2O)cc2c1C=C[C@@H]1[C@@]2(C)C(=O)C[C@]2(C)[C@@H]([C@@](C)(O)C(O)/C=C/C(C)(C)O)[C@H](O)C[C@@]12C (stereo partly drawn)
> 100 µM
